Provide the reported Soybean plant response rating of each item.
Tested on: soybean
PROTOCOL_NOTES: Test B pre/postemergence soybean
Type: in vivo, Glycine max
EXPERIMENTAL_PARAMETERS: Preemergence, Rate 125 g/ha; scale of 0 to 10 where 0 is no effect and 10 is complete control
Numbers only.

These solved cases illustrate the format of a correct answer.
CCC(C)n1c(=O)on(C(=O)N(c2ccccc2)C(C)C)c1=O (centres unmarked) [Compound 611] = 2
CC(C)N(C(=O)n1oc(=O)n(CSC#N)c1=O)c1ccc(F)cc1 = 0
CC(C)N(C(=O)n1oc(=O)n(CC2CCCCO2)c1=O)c1ccc(Cl)cc1 (centres unmarked) = 0
CC(C)N(C(=O)n1oc(=O)n(CC[N+](=O)[O-])c1=O)c1ccc(F)cc1F = 0
CCC=CCn1c(=O)on(C(=O)N(c2ccccc2)C(C)C)c1=O = 0
CC(C)N(C(=O)n1oc(=O)n(CCC2=NOCCC2)c1=O)c1ccc(F)cc1 = 0
CCC(C)n1c(=O)on(C(=O)N(c2ccccc2)C(C)C)c1=O (centres unmarked) [Compound 610] = 6
C=C(Cc1ccccc1)Cn1c(=O)on(C(=O)N(c2ccccc2)C(C)C)c1=O = 0
CC(C)N(C(=O)n1oc(=O)n(CC2CCC2)c1=O)c1ccccc1 = 0
C#CC(C)n1c(=O)on(C(=O)N(c2ccc(Cl)cc2)C(C)C)c1=O (racemic) = 0

# ---- query compound ----
For reference, reported Soybean plant response rating for CC(C)N(C(=O)n1oc(=O)n(C(CF)CF)c1=O)c1ccc(F)cc1F stands at 1

====

Give measured Morningglory plant response rating for each item. Keep answers brief.
Test system: morningglory
PROTOCOL_NOTES: Test B pre/postemergence morningglory
Format: in vivo, Ipomoea hederacea
EXPERIMENTAL_PARAMETERS: Preemergence, Rate 500 g/ha; scale of 0 to 10 where 0 is no effect and 10 is complete control
Give bare numbers.

CCC=CCn1c(=O)on(C(=O)N(c2ccccc2)C(C)C)c1=O = 2
CC(C)N(C(=O)n1oc(=O)n(CCC2OCCCO2)c1=O)c1ccccc1 = 4
Cc1nsc(Cl)c1Cn1c(=O)on(C(=O)N(c2ccccc2)C(C)C)c1=O = 0
CC(C)N(C(=O)n1oc(=O)n(CC(=O)N(C)C)c1=O)c1ccccc1 = 0
COC(=O)CCCn1c(=O)on(C(=O)N(c2ccc(F)cc2F)C(C)C)c1=O = 3

Your task in this section: give Morningglory plant response rating for each listed record.
1. CC(C)N(C(=O)n1oc(=O)n(CC2CCC2)c1=O)c1ccccc1
2. CCC(CC)n1c(=O)on(C(=O)N(c2ccccc2)C(C)C)c1=O
3. CC(C)N(C(=O)n1oc(=O)n(CCC#N)c1=O)c1ccc(F)cc1
4. C=CCn1c(=O)on(C(=O)N(CC)C2CCCCC2)c1=O
5. CC(C)N(C(=O)n1oc(=O)n(CC2CCC2)c1=O)c1ccc(F)cc1F

1: 0; 2: 0; 3: 0; 4: 0; 5: 0

====

System: sugar beet
PROTOCOL_NOTES: Test B pre/postemergence sugar beet
Assay type: in vivo, Beta vulgaris
EXPERIMENTAL_PARAMETERS: Postemergence, Rate 125 g/ha; scale of 0 to 10 where 0 is no effect and 10 is complete control
MEASURE_NAME: Plant response rating, Sugarbeets
Give bare numbers.

Look up Plant response rating, Sugarbeets for the entries below, preserving their order.
1. CCOP(=O)(Cn1c(=O)on(C(=O)N(c2ccc(Cl)cc2)C(C)C)c1=O)OCC
2. C=C(Cn1c(=O)on(C(=O)N(c2ccccc2)C(C)C)c1=O)c1cccc(Cl)n1
3. CC(C)N(C(=O)n1oc(=O)n(CCCC(F)(F)F)c1=O)c1ccccc1
4. COCCn1c(=O)on(C(=O)N(c2ccc(F)cc2F)C(C)C)c1=O

1: 0; 2: 0; 3: 2; 4: 0
